test system: rats; test: Vogel test; type: in vivo; conditions: i.c.v., g-CD, 20 ug
# Vogel (% of control) per entry
endpoint_name: Vogel (% of control)

{"molecule": "CC(O)C1CCC2C3CCC4CC(O)C(F)CC4(C)C3CCC12C (stereo not drawn) [2β-Fluoro-3α,20α-dihydroxy-5α-pregnane]", "data_value": "264.9 % of control"}
{"molecule": "C[C@@H](O)[C@H]1CC[C@H]2[C@@H]3CC[C@@H]4C[C@H](O)CC[C@]4(C)[C@H]3CC[C@]12C [3α,20β-Dihydroxy-5β-pregnane]", "data_value": "267.3 % of control"}
{"molecule": "CCC[C@H](O)[C@H]1CC[C@H]2[C@@H]3CC[C@H]4C[C@H](O)CC[C@]4(C)[C@H]3CC[C@]12C [3α,20α-dihydroxy-21-ethyl-5α-pregnane]", "data_value": "225.8 % of control"}
{"molecule": "CC(C)(O)[C@H]1CC[C@H]2[C@@H]3CC[C@H]4C[C@H](O)CC[C@]4(C)[C@H]3CC[C@]12C [3α,20-dihydroxy-20-methyl-5α-pregnane]", "data_value": "179.0 % of control"}

* * *

System: metrazol induced convulsions
Test: animal or person
Type: in vivo, mice
Details: IP, micro soln., 10 mg/kg
Procedure: Experiments were also performed to determine the physiological relevance of neuroactive steroid and GABA receptor interactions by assessing the ability of the compounds of and used in the invention to prevent metrazol induced convulsions in mice. […] The time to onset of myoclonus (presence of forelimb clonic activity) induced by metrazol was determined by observing each mouse for a period of 30 minutes. […] The anticonvulsant tests are similar to that described above. […]
Lab note - cut at 20% for % Protected: y if strictly below, n if not.

{"compound": "CC(=O)OCC(=O)[C@H]1CC[C@H]2[C@@H]3CC[C@H]4C[C@](C)(O)CC[C@]4(C)[C@H]3CC[C@]12C", "measured_on": "metrazol induced convulsions", "label": "y"}
{"compound": "C[C@H](O)[C@H]1CC[C@H]2[C@@H]3CC[C@H]4C[C@H](O)CC[C@]4(C)[C@H]3CC[C@]12C [3α,20a(S)-dihydroxy-5α-pregnane, 3α,20α(S)-Dihydroxy-5α-pregnane]", "measured_on": "metrazol induced convulsions", "label": "n"}
{"compound": "CC(=O)[C@H]1CC[C@H]2[C@@H]3CC[C@@H]4C[C@](C)(O)CC[C@]4(C)[C@H]3CC[C@]12C [3α-hydroxy-3β-methyl-5β-pregnan-20-one]", "measured_on": "metrazol induced convulsions", "label": "n"}
{"compound": "C[C@@]1(O)CC[C@@]2(C)[C@@H](CC[C@@H]3[C@@H]2CC[C@]2(C)[C@@H](C(=O)COC(=O)CCC(=O)[O-])CC[C@@H]32)C1.[Na+]", "measured_on": "metrazol induced convulsions", "label": "y"}
{"compound": "CC(=O)[C@H]1CC[C@H]2[C@@H]3CC[C@H]4C[C@](C)(O)CC[C@@H]4[C@H]3CC[C@]12C", "measured_on": "metrazol induced convulsions", "label": "n"}
{"compound": "CC(C)(O)[C@H]1CC[C@H]2[C@@H]3CC[C@@H]4C[C@](C)(O)CC[C@]4(C)[C@H]3CC[C@]12C", "measured_on": "metrazol induced convulsions", "label": "n"}

* * *

target: GR complex; assay: modulation of [35S]TBPS binding in rat cerebral cortex P2 homogenate; design: species or system Sprague-Dawley rats; details: concentration of compounds to inhibit 50% of control [35S]TBPS binding; 2 nM [35S]TBPS, 25°C, 90 minutes; unit inferred
pIC50: −log10 of the molar value.
Lab note - cut at 7 for pIC50: yes if strictly below, no if not.

{"molecule": "CC12CCC(O)(C(F)(F)F)CC1CCC1C2CCC2(C)C(C(=O)CBr)CCC12 (stereo not shown)", "measured_on": "GR complex", "label": "yes"}
{"molecule": "CC(O)C1CCC2C3CCC4CC(C)(O)CCC4(C)C3CCC12C (stereo not drawn) [3α,20α-dihydroxy-3β-methyl-5α-pregnane]", "measured_on": "GR complex", "label": "yes"}
{"molecule": "C#C[C@@]1(O)CC[C@@]2(C)[C@H](CC[C@@H]3[C@@H]2CC[C@]2(C)[C@@H](C(=O)CO)CC[C@@H]32)C1", "measured_on": "GR complex", "label": "yes"}
{"molecule": "CCC(O)C1CCC2C3CCC4CC(C)(O)CCC4(C)C3CCC12C (stereo not shown)", "measured_on": "GR complex", "label": "yes"}
{"molecule": "CC(=O)[C@H]1CC[C@H]2[C@@H]3CC[C@H]4C[C@](C)(O)CC[C@]4(C)[C@H]3C(=O)C[C@]12C", "measured_on": "GR complex", "label": "yes"}
{"molecule": "C#C[C@@]1(O)CC[C@@]2(C)[C@H](CC[C@@H]3[C@@H]2CC[C@]2(C)[C@@H](C(C)=O)CC[C@@H]32)C1 [3β-ethynyl-3α-hydroxy-5β-pregnan-20-one, 3β-Ethynyl-3α-hydroxy-5β-pregnan-20-one]", "measured_on": "GR complex", "label": "no"}
{"molecule": "C#C[C@@]1(O)CC[C@@]2(C)[C@H](CC[C@@H]3[C@@H]2CC[C@]2(C)[C@@H]([C@@H](C)O)CC[C@@H]32)C1 [3α,20β-dihydroxy-3β-ethynyl-5β-pregnane, 3β-Ethynyl-3α,20β-dihydroxy-5β-pregnane]", "measured_on": "GR complex", "label": "yes"}
{"molecule": "CC(=O)[C@H]1CC[C@H]2[C@@H]3CC[C@@H]4C[C@@](O)(C(F)(F)F)CC[C@]4(C)[C@H]3CC[C@]12C", "measured_on": "GR complex", "label": "yes"}
{"molecule": "C=C[C@@]1(O)CC[C@@]2(C)[C@@H](CC[C@@H]3[C@@H]2CC[C@]2(C)[C@@H](C(=O)COC(=O)CCC(=O)O)CC[C@@H]32)C1", "measured_on": "GR complex", "label": "yes"}
{"molecule": "CC(=O)[C@H]1CC[C@H]2[C@@H]3CC[C@@H]4C[C@@](O)(C#CC5CC5)CC[C@]4(C)[C@H]3CC[C@]12C", "measured_on": "GR complex", "label": "no"}
{"molecule": "C=C[C@@]1(O)CC[C@@]2(C)[C@@H](CC[C@@H]3[C@@H]2CC[C@]2(C)[C@@H](C(=O)CO)CC[C@@H]32)C1", "measured_on": "GR complex", "label": "yes"}

* * *

test system: mice; experiment: elevated plus-maze; assay type: in vivo, N.I.H. Swiss-Webster mice; conditions: IP, 50% hpbcd, 10 mg/kg

{"compound": "C[C@]12CC[C@](O)(CF)C[C@@H]1CC[C@@H]1[C@@H]2CC[C@]2(C)[C@@H](C(=O)CO)CC[C@@H]12", "% Control, %": 109}
{"compound": "C#C[C@@]1(O)CC[C@@]2(C)[C@@H](CC[C@@H]3[C@@H]2CC[C@]2(C)[C@@H](C(C)=O)CC[C@@H]32)C1 [3α-hydroxy-3β-ethynyl-5α-pregnan-20-one, 3β-Ethynyl-3α-hydroxy-5α-pregnan-20-one]", "% Control, %": 213}
{"compound": "CC(=O)OCC(=O)[C@H]1CC[C@H]2[C@@H]3CC[C@H]4C[C@H](O)CC[C@]4(C)[C@H]3CC[C@]12C", "% Control, %": 133}

* * *

test system: GR complex; experiment: modulation of [35S]TBPS binding in rat cerebral cortex P2 homogenate; set-up: species or system Sprague-Dawley rats; unit not given here; conditions: maximum inhibition of [35S]TBPS binding; I* = Inactive
# IMAX per entry

{"compound": "CC(=O)[C@H]1CC[C@H]2[C@@H]3CC[C@H]4C[C@](C)(O)CC[C@@H]4[C@H]3CC[C@]12C", "IMAX": 80}
{"compound": "C#CC1(O)CCC2(C)C(CCC3C2CCC2(C)C(C(C)O)CCC32)C1 (stereo not drawn) [3α,20α-dihydroxy-3β-ethynyl-5β-pregnane, 3β-Ethynyl-3α,20α-dihydroxy-5β-pregnane]", "IMAX": 98}
{"compound": "CC(O)C1CCC2C3CCC4CC(C)(O)CCC4(C)C3CCC12C (stereo not drawn) [3α,20α-dihydroxy-3β-methyl-5α-pregnane]", "IMAX": 52}
{"compound": "CC(C)(O)[C@H]1CC[C@H]2[C@@H]3CC[C@H]4C[C@H](O)CC[C@]4(C)[C@H]3CC[C@]12C [3α,20-dihydroxy-20-methyl-5α-pregnane]", "IMAX": 40}
{"compound": "CC(=O)OCC(=O)[C@H]1CC[C@H]2[C@@H]3CC[C@@H]4C[C@H](O)CC[C@]4(C)[C@H]3CC[C@]12C", "IMAX": 49}
{"compound": "C=C(C)C#CC1(O)CCC2(C)C(CCC3C2CCC2(C)C(C(C)=O)CCC32)C1 (stereo not shown)", "IMAX": 95}
{"compound": "CC(=O)[C@H]1CC[C@H]2[C@@H]3CC[C@H]4C[C@H](O)CC[C@]4(C)[C@H]3CC[C@]12C [3α-hydroxy-5α-pregnan-20-one, reference compound]", "IMAX": 95}
{"compound": "C=C(C)C#C[C@@]1(O)CC[C@@]2(C)[C@H](CC[C@@H]3[C@@H]2CC[C@]2(C)[C@@H](C(C)=O)CC[C@@H]32)C1", "IMAX": 91}
{"compound": "C=C[C@@]1(O)CC[C@@]2(C)[C@@H](CC[C@@H]3[C@@H]2CC[C@]2(C)[C@@H](C(=O)COC(=O)CCC(=O)O)CC[C@@H]32)C1", "IMAX": 89}
{"compound": "C[C@]12CC[C@H]3[C@@H](CC[C@@H]4C[C@@](O)(C(F)(F)F)CC[C@@H]43)[C@@H]1CC[C@@H]2C(=O)COC(=O)CCC(=O)[O-].[Na+]", "IMAX": 101}
{"compound": "C[C@]12CC[C@](O)(CF)C[C@@H]1CC[C@@H]1[C@@H]2CC[C@]2(C)[C@@H](C(=O)CO)CC[C@@H]12", "IMAX": 101}
{"compound": "C#C[C@@]1(O)CC[C@@]2(C)[C@H](CC[C@@H]3[C@@H]2CC[C@]2(C)[C@@H](C(=O)COC(=O)CCC(=O)O)CC[C@@H]32)C1", "IMAX": 102}
{"compound": "C#C[C@@]1(O)CC[C@@]2(C)[C@@H](CC[C@@H]3[C@@H]2CC[C@]2(C)[C@@H]([C@@H](C)O)CC[C@@H]32)C1 [3α,20β-dihydroxy-3β-ethynyl-5α-pregnane, 3β-ethynyl-3α,20β-dihydroxy- 5α-pregnane]", "IMAX": 107}
